List of α-human koff values.
Target: T1, human α-CGRP (Homo sapiens, UniProt P06881)
T1 construct: 1-37 (WT); purchased GenScript Corporation or Global Peptide Services
T1 sequence (P06881 83-119 limits assumed): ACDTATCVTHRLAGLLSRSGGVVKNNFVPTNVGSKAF
Experiment: Biacore SPR affinity of Fab fragments to N-biotinylated human α-CGRP on SA chip
Format: binding
Conditions: 37° C., screening mode except underlined values
RECORDED ENDPOINT: α-human koff (s⁻¹)

molecule="M68: G1 variant; L1 R28N T30G; L2 L561; H2 E54K A57N S58D E64D; HC-FW3 L99T A100V (antibody, V domains shown) VH: EVQLVESGGGLVQPGGSLRLSCAASGFTFSNYWISWVRQAPGKGLEWVAEIRSKSDNDATHYADAVKGRFTISRDNAKNSLYLQMNSLRAEDTAVYYCTVYFDYGLAIQNYWGQGTLVTVSS VL: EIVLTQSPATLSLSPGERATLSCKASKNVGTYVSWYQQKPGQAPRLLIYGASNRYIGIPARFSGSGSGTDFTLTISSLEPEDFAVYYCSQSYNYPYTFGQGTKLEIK" recorded_endpoint="α-human koff" observed=0.000428
molecule="M73: G1 variant; L1 R28N T30G; L2 L56S; H2 E54K A57N S58Y E64D; HC-FW3 L99T A100V (antibody, V domains shown) VH: EVQLVESGGGLVQPGGSLRLSCAASGFTFSNYWISWVRQAPGKGLEWVAEIRSKSDNYATHYADAVKGRFTISRDNAKNSLYLQMNSLRAEDTAVYYCTVYFDYGLAIQNYWGQGTLVTVSS VL: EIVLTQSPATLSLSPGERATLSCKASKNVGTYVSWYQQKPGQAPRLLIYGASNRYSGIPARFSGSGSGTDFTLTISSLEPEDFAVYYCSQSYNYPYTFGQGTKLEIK" recorded_endpoint="α-human koff" observed=0.000255
molecule="M83: G1 variant; L1 R28N T30V; L2 A51H L56T; H2 E54K A57N S58M; H61F (printed in L1 column); HC-FW3 L99T A100V (antibody, V domains shown) VH: EVQLVESGGGLVQPGGSLRLSCAASGFTFSNYWISWVRQAPGKGLEWVAEIRSKSDNMATFYAEAVKGRFTISRDNAKNSLYLQMNSLRAEDTAVYYCTVYFDYGLAIQNYWGQGTLVTVSS VL: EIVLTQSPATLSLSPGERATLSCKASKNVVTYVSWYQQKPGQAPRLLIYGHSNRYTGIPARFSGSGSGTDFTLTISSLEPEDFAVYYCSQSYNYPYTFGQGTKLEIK" recorded_endpoint="α-human koff" observed=0.000933
molecule="M76: G1 variant; L1 R28N T30S; L2 G50A L56T; H2 A57G; HC-FW3 L99T A100V (antibody, V domains shown) VH: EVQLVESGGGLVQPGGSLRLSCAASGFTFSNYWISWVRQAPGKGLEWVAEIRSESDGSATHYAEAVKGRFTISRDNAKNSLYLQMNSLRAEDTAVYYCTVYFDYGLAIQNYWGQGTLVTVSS VL: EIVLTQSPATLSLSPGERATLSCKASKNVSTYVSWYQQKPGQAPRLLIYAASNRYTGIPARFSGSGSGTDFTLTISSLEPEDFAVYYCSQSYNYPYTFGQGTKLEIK" recorded_endpoint="α-human koff" observed=0.000364
